Target: UniProtKB Q15910
Sequence (Q15910 whole entry): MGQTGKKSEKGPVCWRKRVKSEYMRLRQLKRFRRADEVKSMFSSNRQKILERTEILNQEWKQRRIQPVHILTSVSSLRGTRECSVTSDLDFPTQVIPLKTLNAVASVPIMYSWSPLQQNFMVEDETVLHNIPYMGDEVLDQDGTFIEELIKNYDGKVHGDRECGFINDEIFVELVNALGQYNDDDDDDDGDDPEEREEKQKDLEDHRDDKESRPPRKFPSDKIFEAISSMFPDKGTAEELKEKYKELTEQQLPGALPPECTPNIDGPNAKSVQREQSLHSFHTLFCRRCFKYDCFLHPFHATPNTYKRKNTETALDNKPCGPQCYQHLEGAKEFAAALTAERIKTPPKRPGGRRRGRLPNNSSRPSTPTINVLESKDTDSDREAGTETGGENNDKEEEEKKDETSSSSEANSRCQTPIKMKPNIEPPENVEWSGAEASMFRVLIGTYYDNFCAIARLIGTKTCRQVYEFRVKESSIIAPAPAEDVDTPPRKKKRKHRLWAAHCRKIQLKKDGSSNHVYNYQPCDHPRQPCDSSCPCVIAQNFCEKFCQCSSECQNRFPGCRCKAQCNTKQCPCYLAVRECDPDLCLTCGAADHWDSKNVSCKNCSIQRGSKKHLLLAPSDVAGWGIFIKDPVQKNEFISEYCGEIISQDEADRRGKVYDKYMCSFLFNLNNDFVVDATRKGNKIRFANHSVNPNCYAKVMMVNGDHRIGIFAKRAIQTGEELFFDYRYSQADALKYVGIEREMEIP
Sequence (O75530 whole entry partner): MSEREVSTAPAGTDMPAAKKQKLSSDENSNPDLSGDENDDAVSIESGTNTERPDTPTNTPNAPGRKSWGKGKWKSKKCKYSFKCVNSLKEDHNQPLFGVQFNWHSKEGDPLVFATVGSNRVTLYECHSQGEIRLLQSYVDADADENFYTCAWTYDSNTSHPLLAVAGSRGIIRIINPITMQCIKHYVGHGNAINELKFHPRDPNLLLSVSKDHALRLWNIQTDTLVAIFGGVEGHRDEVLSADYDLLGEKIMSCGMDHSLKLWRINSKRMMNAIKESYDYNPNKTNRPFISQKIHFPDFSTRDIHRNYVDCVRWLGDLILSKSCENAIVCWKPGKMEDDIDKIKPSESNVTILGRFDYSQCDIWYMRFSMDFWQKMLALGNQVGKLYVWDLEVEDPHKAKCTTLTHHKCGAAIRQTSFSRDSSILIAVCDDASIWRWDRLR
Sequence (Q15022 whole entry partner): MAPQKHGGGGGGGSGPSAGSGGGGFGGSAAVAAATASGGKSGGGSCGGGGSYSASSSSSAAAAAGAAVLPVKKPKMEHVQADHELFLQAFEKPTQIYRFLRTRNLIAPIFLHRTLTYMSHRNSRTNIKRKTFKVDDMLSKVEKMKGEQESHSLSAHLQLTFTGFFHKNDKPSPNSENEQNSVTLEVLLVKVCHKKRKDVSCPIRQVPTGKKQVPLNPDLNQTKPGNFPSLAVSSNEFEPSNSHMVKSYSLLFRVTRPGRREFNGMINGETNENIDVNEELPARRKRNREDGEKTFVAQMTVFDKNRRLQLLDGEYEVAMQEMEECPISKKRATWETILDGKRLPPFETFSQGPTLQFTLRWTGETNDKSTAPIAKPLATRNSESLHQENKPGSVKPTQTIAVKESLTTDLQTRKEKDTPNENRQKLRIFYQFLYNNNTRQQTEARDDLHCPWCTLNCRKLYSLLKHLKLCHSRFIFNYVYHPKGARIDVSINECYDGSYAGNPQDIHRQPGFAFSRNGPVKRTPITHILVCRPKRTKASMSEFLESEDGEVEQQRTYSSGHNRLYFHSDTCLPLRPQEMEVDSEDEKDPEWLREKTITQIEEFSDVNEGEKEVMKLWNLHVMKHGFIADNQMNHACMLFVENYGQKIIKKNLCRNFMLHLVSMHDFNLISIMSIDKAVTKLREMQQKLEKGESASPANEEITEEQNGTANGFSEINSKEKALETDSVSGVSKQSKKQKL
Assay: EZH2 assay: rPRC2, biotinylated oligonucleosomes, 3H SAM methyl transfer (FlashPlate scintillation)
Assay type: biochemical
Conditions: EZH2 IC50, wild-type EZH2 (rPRC2), biotinylated oligonucleosome substrate
pIC50: −log10 of the molar value.
MEASURED_PARAMETER: pIC50

Which measured pIC50 value corresponds to COc1cc(C)[nH]c(=O)c1CNC(=O)c1c(C)n(C(C)C2CCC(S(=O)(=O)C(C)C)CC2)c2ccccc12 (single isomer, unassigned) ?
> 7.00

Which measured pIC50 value corresponds to Cc1cc(C)c(CNC(=O)c2c(C)n(C(C)c3ccc(F)cc3)c3ccccc23)c(=O)[nH]1 (racemic) ?
> 7.00

Which measured pIC50 value corresponds to COc1cc(C)[nH]c(=O)c1CNC(=O)c1c(C)n([C@H](C)[C@H](OC)C2CC2)c2ncccc12 (single isomer, unassigned) [Compound 285] ?
6.00 to 7.00

Which measured pIC50 value corresponds to CCOCC(C)n1c(C)c(C(=O)NCc2c(OC)cc(C)[nH]c2=O)c2cccnc21 (racemic) ?
> 7.00

Which measured pIC50 value corresponds to COc1cc(C)[nH]c(=O)c1CNC(=O)c1c(C)n(C(C)C(C)OC)c2ccccc12 (single isomer, unassigned) [Compound 308] ?
6.00 to 7.00

Which measured pIC50 value corresponds to COc1cc(C)[nH]c(=O)c1CNC(=O)c1c(C)n(C(C)[C@H]2CNCCO2)c2ncncc12 (stereo partly shown) ?
> 7.00

Which measured pIC50 value corresponds to Cc1cc(C)c(CNC(=O)c2c(C)n(C(C)C3CC3)c3ncccc23)c(=O)[nH]1 (single isomer, unassigned) [Compound 252] ?
> 7.00
